Taken from patent US9676782B2.

log10 IC50 by entry:
Experimental target: rat mGlu3 (Rattus norvegicus (Rat))
Assay summary: mGlu3 Ca2+ flux assay
Type: cell-based
Experimental setup: NAM potency, decrease of glutamate EC80 response; >30,000 = no measurable activity; >10,000 = no plateau; read-out: rat mGlu3 IC50
The common logarithm of IC50 in nM is what is listed.

Smiles string | Experimental target | log10 IC50
O=C1c2cc(CNc3ccc(OC(F)F)cc3F)nn2CCN1c1ccccn1 | rat mGlu3 (Rattus norvegicus (Rat)) | 2.97

rat mGlu3 (Rattus norvegicus (Rat)) / log10 IC50 / COc1ccc(N(C)Cc2cc3n(n2)CCN(c2cc(Cl)cc(OC)c2)C3=O)cc1 : value? 3.23

rat mGlu3 (Rattus norvegicus (Rat)) / log10 IC50 / O=C1c2cc(CNc3cc(F)cc(F)c3)nn2CCN1c1ccc(F)cc1 : value? 2.87

rat mGlu3 (Rattus norvegicus (Rat)) / log10 IC50 / O=C1c2cc(CNc3ccc(F)c(F)c3)nn2CCN1c1ccc(F)cc1 : value? 2.66

rat mGlu3 (Rattus norvegicus (Rat)) / log10 IC50 / C[C@H]1CN(c2ccc(F)cc2)C(=O)c2cc(CNc3ccccc3F)nn21 : value? 3.40

###

Experimental target: rat mGlu3 (Rattus norvegicus (Rat), UniProt P31422)
Sequence (P31422 23-879): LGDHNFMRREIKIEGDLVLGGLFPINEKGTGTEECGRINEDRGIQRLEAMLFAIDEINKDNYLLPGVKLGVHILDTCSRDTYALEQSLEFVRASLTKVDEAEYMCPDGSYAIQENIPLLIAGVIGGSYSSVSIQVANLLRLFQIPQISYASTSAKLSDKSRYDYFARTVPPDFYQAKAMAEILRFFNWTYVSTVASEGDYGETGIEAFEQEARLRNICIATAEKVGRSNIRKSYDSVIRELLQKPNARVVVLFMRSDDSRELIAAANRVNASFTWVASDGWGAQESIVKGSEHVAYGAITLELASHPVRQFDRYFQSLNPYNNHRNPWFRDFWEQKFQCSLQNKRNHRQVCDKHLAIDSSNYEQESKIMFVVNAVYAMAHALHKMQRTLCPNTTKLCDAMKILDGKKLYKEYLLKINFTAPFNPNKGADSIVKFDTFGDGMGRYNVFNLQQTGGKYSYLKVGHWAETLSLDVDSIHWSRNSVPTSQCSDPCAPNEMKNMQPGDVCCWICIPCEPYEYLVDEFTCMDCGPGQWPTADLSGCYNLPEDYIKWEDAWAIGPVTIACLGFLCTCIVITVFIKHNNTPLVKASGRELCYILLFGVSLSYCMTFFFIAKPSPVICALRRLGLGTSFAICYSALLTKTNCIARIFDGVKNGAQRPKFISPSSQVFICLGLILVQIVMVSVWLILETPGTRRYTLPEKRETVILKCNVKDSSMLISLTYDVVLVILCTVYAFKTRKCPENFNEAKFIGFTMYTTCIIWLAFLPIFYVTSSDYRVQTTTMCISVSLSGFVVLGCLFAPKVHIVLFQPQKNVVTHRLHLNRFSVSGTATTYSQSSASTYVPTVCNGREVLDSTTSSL
Assay summary: mGlu3 Ca2+ flux assay
Type: cell-based
Experimental setup: NAM potency, decrease of glutamate EC80 response; >30,000 = no measurable activity; >10,000 = no plateau; read-out: rat mGlu3 IC50
Value kind: IC50 (nM)
Numbers only; they are read as nM.

Before answering, review these 4 worked examples.
Smiles string | Value unit | Observed
C[C@H]1CN(c2ccc(F)cc2)C(=O)c2cc(CNc3ccccc3)nn21 | nM | 8110
COc1cc(F)cc(N2CCn3nc(CNc4ccc(OC(F)F)cc4F)cc3C2=O)c1 | nM | 1260
CN(Cc1cc2n(n1)CCN(c1ccc(F)cc1)C2=O)c1ccc(Cl)cc1 | nM | 885
COc1ccc(NCc2cc3n(n2)[C@@H](C)CN(c2ccc(F)cc2)C3=O)cc1 | nM | 8370

Form field: reported IC50 of COc1ccccc1NCc1cc2n(n1)CCN(c1ccc(F)cc1)C2=O 3040

Form field: reported IC50 of COc1ccc(N(C)Cc2cc3n(n2)CCN(c2csc(C)n2)C3=O)cc1 1620

Form field: reported IC50 of C[C@@H]1CN(c2ccc(F)cc2)C(=O)c2cc(CNc3cc(F)ccc3F)nn21 1140

Form field: reported IC50 of O=C1c2cc(CNc3ccc(OC(F)F)cc3F)nn2CCN1c1cc(F)cc(F)c1 1070

###

Experimental target: rat mGlu5 (Rattus norvegicus (Rat))
Sequence (P31424 21-1203): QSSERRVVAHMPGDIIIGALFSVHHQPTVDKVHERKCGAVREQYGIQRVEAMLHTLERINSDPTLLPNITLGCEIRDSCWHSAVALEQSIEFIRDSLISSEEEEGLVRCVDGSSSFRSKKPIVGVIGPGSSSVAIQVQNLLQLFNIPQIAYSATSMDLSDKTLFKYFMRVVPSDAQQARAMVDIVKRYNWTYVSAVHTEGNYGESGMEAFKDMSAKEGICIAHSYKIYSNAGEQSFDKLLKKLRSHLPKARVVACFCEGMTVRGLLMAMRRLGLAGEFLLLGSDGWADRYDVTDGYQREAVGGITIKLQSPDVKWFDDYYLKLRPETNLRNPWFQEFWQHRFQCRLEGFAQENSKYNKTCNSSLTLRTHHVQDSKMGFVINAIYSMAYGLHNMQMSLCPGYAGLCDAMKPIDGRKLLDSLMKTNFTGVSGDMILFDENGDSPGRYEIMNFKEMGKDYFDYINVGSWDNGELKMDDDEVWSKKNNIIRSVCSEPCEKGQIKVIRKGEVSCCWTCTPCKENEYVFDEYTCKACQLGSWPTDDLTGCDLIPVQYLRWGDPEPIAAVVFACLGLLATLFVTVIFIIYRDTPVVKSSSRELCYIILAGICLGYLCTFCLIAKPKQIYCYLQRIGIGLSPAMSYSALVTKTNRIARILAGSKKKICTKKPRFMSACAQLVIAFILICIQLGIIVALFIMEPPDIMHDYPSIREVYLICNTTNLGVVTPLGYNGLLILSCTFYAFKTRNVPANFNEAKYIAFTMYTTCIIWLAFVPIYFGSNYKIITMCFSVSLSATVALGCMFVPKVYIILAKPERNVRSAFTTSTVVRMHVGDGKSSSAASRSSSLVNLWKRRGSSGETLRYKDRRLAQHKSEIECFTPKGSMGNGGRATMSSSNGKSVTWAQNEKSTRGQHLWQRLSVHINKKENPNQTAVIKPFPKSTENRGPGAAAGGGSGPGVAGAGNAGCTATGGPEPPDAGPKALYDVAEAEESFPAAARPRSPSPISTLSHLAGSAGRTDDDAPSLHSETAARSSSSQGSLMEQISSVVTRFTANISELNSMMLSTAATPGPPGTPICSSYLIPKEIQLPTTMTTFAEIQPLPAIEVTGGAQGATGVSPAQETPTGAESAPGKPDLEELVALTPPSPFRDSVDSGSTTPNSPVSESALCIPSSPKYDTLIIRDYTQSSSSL
Assay summary: mGlu5 Ca2+ flux assay
Assay type: cell-based
Experimental setup: PAM; amplitude of response at 30 μM test compound as % of maximal response to glutamate; read-out: rat mGlu5 Glu max (%)
Under this convention, rule met denotes Emax at 30 µM strictly below 80% and rule not met denotes Emax at 30 µM at or above 80%.

Smiles string | Qualitative label
O=C1c2cc(CNc3c(F)cccc3F)nn2CCN1c1ccc(F)cc1 | rule not met
O=C1c2cc(CNc3ccccc3Cl)nn2CCN1c1ccc(F)cc1 | rule met
C[C@@H]1CN(c2ccc(F)cc2)C(=O)c2cc(CNc3c(F)cccc3F)nn21 | rule met
C[C@H]1CN(c2ccc(F)cc2)C(=O)c2cc(CNc3c(F)cccc3F)nn21 | rule met
O=C1c2cc(CNc3c(F)cc(F)cc3F)nn2CCN1c1ccc(F)cc1 | rule not met
C[C@@H]1CN(c2ccc(F)cc2)C(=O)c2cc(CNc3cc(F)ccc3F)nn21 | rule met
Cc1ccc(NCc2cc3n(n2)CCN(c2ccc(F)cc2)C3=O)c(F)c1 | rule not met
O=C1c2cc(CNc3ccc(OC(F)F)c(F)c3)nn2CCN1c1ccc(F)cc1 | rule not met

Next item in the queue.
hey, is Emax at 30 µM for C[C@H]1CN(c2ccc(F)cc2)C(=O)c2cc(CNc3ccccc3F)nn21 lower than 80% or not? rule not met
